Molecular target: recombinant CYP1A2 (Homo sapiens, UniProt P05177)
Construct: purchased Thermo Fisher Scientific; host or cells: insect cells (microsomes)
Sequence (P05177 2-516 limits assumed): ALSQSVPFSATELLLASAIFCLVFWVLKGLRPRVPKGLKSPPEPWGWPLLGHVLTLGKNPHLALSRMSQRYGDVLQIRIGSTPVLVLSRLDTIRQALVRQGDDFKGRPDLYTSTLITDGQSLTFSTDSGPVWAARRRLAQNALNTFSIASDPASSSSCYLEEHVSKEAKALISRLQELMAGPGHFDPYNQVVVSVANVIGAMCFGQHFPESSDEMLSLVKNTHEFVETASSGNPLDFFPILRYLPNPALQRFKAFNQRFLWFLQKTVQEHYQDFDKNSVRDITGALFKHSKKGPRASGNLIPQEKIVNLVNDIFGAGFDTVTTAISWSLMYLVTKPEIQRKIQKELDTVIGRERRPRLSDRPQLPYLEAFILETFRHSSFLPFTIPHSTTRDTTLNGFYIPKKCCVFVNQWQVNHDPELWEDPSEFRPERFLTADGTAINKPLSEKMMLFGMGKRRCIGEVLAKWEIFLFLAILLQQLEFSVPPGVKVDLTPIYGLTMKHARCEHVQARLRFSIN
Assay: Vivid fluorescence-based CYP inhibition assay, recombinant CYP1A2 (EOMCC substrate)
Assay type: in vitro ADME
Settings: fluorescence-based, EOMCC substrate, betanin 0.1–100 μM
pIC50: −log10 of the molar value.
observable: pIC50

[Q] Dear colleague, I am looking for the recorded pIC50 of the following compound: O=C(O)C1=C/C(=C/C=[N+]2/c3cc(O)c(OC4OC(CO)[C@@H](O)C(O)C4O)cc3CC2C(=O)[O-])CC(C(=O)O)N1 (stereo in doubt) [betanin, Betanin]
[A] < 4.00

* * *

Molecular target: recombinant CYP2C19 (Homo sapiens, UniProt P33261)
Construct: purchased Thermo Fisher Scientific; host or cells: insect cells (microsomes)
Sequence (P33261 whole entry): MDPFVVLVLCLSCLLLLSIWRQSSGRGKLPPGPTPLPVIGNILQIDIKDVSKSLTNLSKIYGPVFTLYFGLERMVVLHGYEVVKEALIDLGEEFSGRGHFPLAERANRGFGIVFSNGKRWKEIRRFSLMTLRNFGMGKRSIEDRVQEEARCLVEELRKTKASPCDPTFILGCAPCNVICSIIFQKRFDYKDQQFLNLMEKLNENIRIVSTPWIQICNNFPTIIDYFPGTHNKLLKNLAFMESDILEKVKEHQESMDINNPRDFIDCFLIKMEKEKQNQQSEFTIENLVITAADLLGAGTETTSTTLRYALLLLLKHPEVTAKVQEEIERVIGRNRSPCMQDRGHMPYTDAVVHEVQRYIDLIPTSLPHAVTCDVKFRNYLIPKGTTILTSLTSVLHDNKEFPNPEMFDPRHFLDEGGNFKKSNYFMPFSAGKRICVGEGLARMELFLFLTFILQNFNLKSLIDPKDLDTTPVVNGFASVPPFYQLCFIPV
Experiment: Vivid fluorescence-based CYP inhibition assay, recombinant CYP2C19 (EOMCC substrate)
Format: in vitro ADME
Conditions: fluorescence-based, EOMCC substrate, betanin 0.1–100 μM
Procedure: We measured the activity of six representative CYPs using Vivid CYP screening kits. CYP activity was evaluated using recombinant CYPs and specific fluorescent substrates 7-ethoxymethoxy-3-cyanocoumarin (EOMCC) and 7-benzyloxymethyloxy-3-cyanocoumarin (BOMCC). Raw fluorescence data were normalized against control activity values of 0% and 100%. […] Maximum 100% activity values were expressed as a reaction with only enzymes and 0.5% DMSO, with no other drugs. […]
observable: IC50

[Q] Please report the recorded IC50 for O=C(O)C1=C/C(=C/C=[N+]2/c3cc(O)c(OC4OC(CO)[C@@H](O)C(O)C4O)cc3CC2C(=O)[O-])CC(C(=O)O)N1 (stereo in doubt) .
[A] > 100 µM

* * *

Target: recombinant CYP3A4 (Homo sapiens)
Construct: purchased Thermo Fisher Scientific; host or cells: insect cells (microsomes)
Sequence (P08684 2-503 limits assumed): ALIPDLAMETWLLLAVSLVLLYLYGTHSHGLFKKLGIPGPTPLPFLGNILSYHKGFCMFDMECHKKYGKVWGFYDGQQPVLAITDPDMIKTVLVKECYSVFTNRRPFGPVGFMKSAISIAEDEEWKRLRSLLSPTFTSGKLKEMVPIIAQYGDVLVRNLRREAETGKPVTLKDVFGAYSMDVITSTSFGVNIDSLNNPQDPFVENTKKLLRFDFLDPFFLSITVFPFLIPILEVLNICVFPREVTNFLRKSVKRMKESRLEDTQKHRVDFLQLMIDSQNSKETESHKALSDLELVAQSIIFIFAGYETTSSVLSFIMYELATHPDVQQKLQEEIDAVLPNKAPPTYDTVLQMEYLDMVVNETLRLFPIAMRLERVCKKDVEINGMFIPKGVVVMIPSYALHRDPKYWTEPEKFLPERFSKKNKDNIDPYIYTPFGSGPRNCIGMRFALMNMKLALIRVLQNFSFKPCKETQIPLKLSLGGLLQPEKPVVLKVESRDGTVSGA
Test: Vivid fluorescence-based CYP inhibition assay, recombinant CYP3A4 (BOMCC substrate)
Assay type: in vitro ADME
Details: fluorescence-based, BOMCC substrate, betanin 0.1–100 μM; 95% CI 19.09–23.06 μM
observable: pIC50
// pIC50 is dimensionless: -log10 of concentration (M)

[Q] Fill in the blank: the reported pIC50 of O=C(O)C1=C/C(=C/C=[N+]2/c3cc(O)c(OC4OC(CO)[C@@H](O)C(O)C4O)cc3CC2C(=O)[O-])CC(C(=O)O)N1 (stereo in doubt) [betanin, Betanin] is ____.
[A] 4.68

* * *

Target: recombinant CYP2C9 (Homo sapiens)
Construct: purchased; host or cells: insect cells (microsomes)
Sequence (P11712 whole entry): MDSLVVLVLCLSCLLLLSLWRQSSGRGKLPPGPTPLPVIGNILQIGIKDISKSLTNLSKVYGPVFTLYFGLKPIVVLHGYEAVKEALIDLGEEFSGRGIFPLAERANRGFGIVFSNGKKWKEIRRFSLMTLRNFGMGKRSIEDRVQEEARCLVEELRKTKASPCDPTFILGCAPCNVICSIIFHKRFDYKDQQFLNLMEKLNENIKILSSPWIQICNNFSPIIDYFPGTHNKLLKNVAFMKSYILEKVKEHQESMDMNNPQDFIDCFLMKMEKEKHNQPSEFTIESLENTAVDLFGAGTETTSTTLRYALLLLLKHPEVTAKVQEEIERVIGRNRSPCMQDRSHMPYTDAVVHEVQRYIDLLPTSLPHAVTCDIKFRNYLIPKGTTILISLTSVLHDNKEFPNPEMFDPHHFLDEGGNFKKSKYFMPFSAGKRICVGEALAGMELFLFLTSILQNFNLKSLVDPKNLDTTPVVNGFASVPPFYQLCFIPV
Assay: Vivid fluorescence-based CYP inhibition assay, recombinant CYP2C9 (BOMCC substrate)
Assay type: in vitro ADME
Details: fluorescence-based, BOMCC substrate, betanin 0.1–100 μM
pIC50: −log10 of the molar value.
observable: pIC50

[Q] Dear colleague, I am looking for the recorded pIC50 of the following compound: O=C(O)C1=C/C(=C/C=[N+]2/c3cc(O)c(OC4OC(CO)[C@@H](O)C(O)C4O)cc3CC2C(=O)[O-])CC(C(=O)O)N1 (stereo in doubt)
[A] < 4.00
